Recorded Selectivity HCT 116-WT/ HCT116 MTAP KO, one value per entry.
Test system: HCT116 MTAP KO cells
Experiment: Inhibitory activity against cell proliferation (CellTiter Glo, 6 days), HCT116 MTAP KO
Type: cell-based
Details: ratio of IC50 HCT116-WT / HCT116 MTAP KO
value-type: Selectivity HCT 116-WT/ HCT116 MTAP KO

| compound | observed-measurement |
| --- | --- |
| Cc1cc2cc(C(=O)N(Cc3ccc(C(F)(F)F)cn3)N(C)c3nccc(C(F)(F)F)n3)ccc2nc1N [Example 40] | 31.19 |
| Cc1cc2nc(N)c3cnn(C)c3c2cc1C(=O)N1CC(C)CN1c1cccc(C#N)n1 (centres unmarked) [Example 365] | 48.37 |
| Cc1cc2cc(C(=O)N(Cc3ccc(C(F)(F)F)cn3)N(C)c3nccc4sccc34)ccc2nc1N [Example 271] | 13.42 |
| Cc1cc2cc(C(=O)N(Cc3ccc(C(F)(F)F)nn3)N(C)c3ncccn3)ccc2nc1N [Example 124] | 29.33 |
| Cc1cc2cc(C(=O)N(Cc3ccc(-c4ccsc4)cn3)N(C)c3ncccn3)ccc2nc1N [Example 201] | 24.25 |
| Cc1cc2cc(C(=O)N(Cc3ccc(C4CCOCC4)cn3)N(C)c3ncccn3)ccc2nc1N [Example 218] | 10.56 |
| Cc1cc2nc(N)c3cnn(C)c3c2cc1C(=O)N1CCCN1c1ncc(-c2cnc3c(cnn3C)c2)cc1F [Example 482] | 89.47 |
| C=Cc1ccc(CN(C(=O)c2ccc3nc(N)c(C)cc3c2)N(C)c2ncccn2)nc1 [Example 188] | 22.44 |
